EXPERIMENTAL PROTOCOL: clinical
EXPERIMENTAL CONTEXT: human, in vivo, CL, total body clearance

SMILES STR	UNIT OF MEASURE	clearance
CN[C@H]1C(=O)N[C@@H]2Cc3ccc(cc3)Oc3cc4cc(c3O[C@@H]3O[C@H](C(=O)O)[C@@H](O)[C@H](O)[C@H]3NC(=O)CCCCCCCCC(C)C)Oc3ccc(cc3Cl)[C@@H](O)[C@@H]3NC(=O)[C@H](NC(=O)[C@@H]4NC(=O)[C@@H](NC2=O)c2cc(cc(O)c2Cl)Oc2cc1ccc2O)c1ccc(O)c(c1)-c1c(O[C@H]2O[C@H](CO)[C@@H](O)[C@H](O)[C@@H]2O)cc(O)cc1[C@@H](C(=O)NCCCN(C)C)NC3=O	mL/min	0.683
